- System: HLA-A*24:03
- Assay Overview: IEDB peptide-MHC binding, purified MHC/competitive/fluorescence; filed as Kd, often an IC50 or EC50 that approximates it; bounds were set here for any values at or beyond the usual limits of such assays
- Protocol Conditions: source organism: Burkholderia pseudomallei K96243
pKd: −log10 of the molar value.
Experimental Endpoint: pKd

Under HLA-A*24:03: pKd value of `SELTVSPPD` ?
≤ 4.70

====

- System: HLA-B*15:01
- Assay Overview: IEDB peptide-MHC binding, purified MHC/competitive/fluorescence; filed as Kd, often an IC50 or EC50 that approximates it; bounds were set here for any values at or beyond the usual limits of such assays
- Protocol Conditions: source organism: Pan troglodytes
pKd: −log10 of the molar value.
Experimental Endpoint: pKd

Which pKd value belongs to `FLFDRLTNG` ?
≤ 4.70
